# assayTarget: Recombinant human his-tagged IGF 1R extracellular domain protein (human) (UniProt P08069)
# testDetails: SPR, captured antibody, pH 7.4
# log10 of koff listing for each entry below
Heads up: the numbers are on a log10 scale; they represent koff in s⁻¹.

Below are worked cases with known answers.
VRDN-03132 (antibody, V domains shown) VH: EVQLVESGGGVVQPGRSLRLSCAASGFTFSSYSMHWVRQAPGKGLEWVAVIWYDGSSKYYADSVKGRFTISRDNSKNTLYLQMNSLRAEDTAVYYCARELGRRYFDIWGQGTLVTVSS VL: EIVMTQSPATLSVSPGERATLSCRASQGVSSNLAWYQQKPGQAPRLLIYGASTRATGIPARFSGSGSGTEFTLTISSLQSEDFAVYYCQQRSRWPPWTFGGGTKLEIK ... -2.40
VRDN-03101 (antibody, V domains shown) VH: QVQLVESGGGVVQPGRSLRLSCAASGFTFSDYTMHWVRQAPGKGLEWVAIIWFDGSSKYYADSVKGRFTISRDNSKNTLYLQMNSLRAEDTAVYYCARELGRRYFDIWGRGTLVTVSS VL: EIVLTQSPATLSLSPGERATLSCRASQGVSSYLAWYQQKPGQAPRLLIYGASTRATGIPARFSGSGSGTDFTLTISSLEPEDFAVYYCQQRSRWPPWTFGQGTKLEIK ... -4.15
VRDN-03055 (antibody, V domains shown) VH: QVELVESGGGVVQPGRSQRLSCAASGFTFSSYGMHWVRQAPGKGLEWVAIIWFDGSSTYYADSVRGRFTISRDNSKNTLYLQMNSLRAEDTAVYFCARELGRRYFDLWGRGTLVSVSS VL: EIVLTQSPATLSLSPGERATLSCRASQSVSSYLAWYQQKPGQAPRLLIYDASKRAHGIPARFSGSGSGTDFTLTISSLEPEDFAVYYCQQRSKWPPWTFGQGTKVESK ... -3.73
VRDN-03104 (antibody, V domains shown) VH: QVQLVESGGGVVQPGRSLRLSCAASGFTFSDHYMDWVRQAPGKGLEWVAIIWFDGSSKYYADSVKGRFTISRDNSKNTLYLQMNSLRAEDTAVYYCARELGRRYFDIWGRGTLVTVSS VL: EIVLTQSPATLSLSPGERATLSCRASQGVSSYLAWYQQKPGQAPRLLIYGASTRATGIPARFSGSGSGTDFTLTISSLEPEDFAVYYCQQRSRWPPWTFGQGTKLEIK ... -3.59

Moving on to another binder below.
Look up log10 of koff: VRDN-03126 (antibody, V domains shown) VH: EVQLVESGGGVVQPGRSLRLSCAASGFTFDDYTMHWVRQAPGKGLEWVAVIWYDGSSKYYADSVKGRFTISRDNSKNTLYLQMNSLRAEDTAVYYCARELGRRYFDIWGQGTLVTVSS VL: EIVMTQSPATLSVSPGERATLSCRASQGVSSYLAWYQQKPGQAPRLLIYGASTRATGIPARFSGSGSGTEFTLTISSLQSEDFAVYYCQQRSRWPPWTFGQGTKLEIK
-2.53
